The measurements presented in this section are drawn from patent US8003660B2.

# SYSTEM: M4 muscarinic receptor (Homo sapiens)
# Construct: expressed in transfected cells; host or cells: CHO (M4-CHO)
# Sequence (P08173 1-479): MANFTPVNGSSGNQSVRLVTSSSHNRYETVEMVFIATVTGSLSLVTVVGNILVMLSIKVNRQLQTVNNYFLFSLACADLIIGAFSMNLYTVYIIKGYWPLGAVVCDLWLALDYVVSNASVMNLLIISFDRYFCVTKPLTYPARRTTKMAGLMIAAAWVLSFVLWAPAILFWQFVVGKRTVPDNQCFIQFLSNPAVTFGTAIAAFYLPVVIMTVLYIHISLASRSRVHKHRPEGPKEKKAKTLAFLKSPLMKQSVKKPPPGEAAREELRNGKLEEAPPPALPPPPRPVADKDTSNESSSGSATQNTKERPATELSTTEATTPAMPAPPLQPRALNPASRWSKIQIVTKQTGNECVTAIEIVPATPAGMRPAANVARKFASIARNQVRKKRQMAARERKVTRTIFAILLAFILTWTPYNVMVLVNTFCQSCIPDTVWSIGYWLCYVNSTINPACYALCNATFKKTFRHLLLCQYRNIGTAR
# PROTOCOL DESCRIPTION: Functional mobilization of intracellular calcium (FLIPR) in CHO cells expressing M4
# Assay type: cell-based
# ASSAY CONTEXT: CHO; 100% efficacy = maximum response obtained with the Carbachol control
Reported Emax values follow for various molecules

| MOLECULE | Emax |
| --- | --- |
| CC(C)(C)OC(=O)N1CCC2(CC1)C[C@H](NC(=O)N1CCCC1)c1ccccc12 [compound 276] | < 25% |
| CCN(C(=O)CCC(C)=O)[C@@H]1CCC2(CCN(CCC(C)(C)C)CC2)c2ccccc21 [compound 210] | 25 to 100% |
| CC(=O)N[C@H]1CCC2(CCN(CCCC(F)(F)F)CC2)c2ccccc21 [compound 185] | 25 to 100% |
| CC(C)(C)CCN1CCC2(CC1)C[C@H](NC(=O)N1CCCC1)c1ccccc12 [compound 251] | < 25% |

###

# SYSTEM: M1 muscarinic receptor (Homo sapiens, UniProt P11229)
# Sequence (P11229 1-460): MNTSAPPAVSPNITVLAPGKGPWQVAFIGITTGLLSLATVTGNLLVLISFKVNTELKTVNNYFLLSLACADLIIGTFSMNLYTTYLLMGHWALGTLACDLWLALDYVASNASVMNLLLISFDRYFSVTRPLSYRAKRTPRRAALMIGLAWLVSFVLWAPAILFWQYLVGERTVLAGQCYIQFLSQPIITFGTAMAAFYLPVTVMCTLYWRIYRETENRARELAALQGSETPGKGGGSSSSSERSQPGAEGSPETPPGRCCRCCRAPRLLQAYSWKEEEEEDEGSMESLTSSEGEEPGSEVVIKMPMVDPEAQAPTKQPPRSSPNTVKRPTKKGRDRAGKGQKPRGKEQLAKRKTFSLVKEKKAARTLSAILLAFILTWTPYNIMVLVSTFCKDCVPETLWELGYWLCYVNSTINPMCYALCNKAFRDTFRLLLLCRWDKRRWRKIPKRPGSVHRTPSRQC
# PROTOCOL DESCRIPTION: Functional mobilization of intracellular calcium (FLIPR) in CHO cells expressing M1
# ASSAY CONTEXT: CHO cells expressing M1, FLIPR calcium
pEC50: −log10 of the molar value.
Reported pEC50 values follow for various compounds

| COMPOUND | SYSTEM | pEC50 |
| --- | --- | --- |
| C[C@H](C(=O)N[C@@H]1CCC2(CCN(CCC(C)(C)C)CC2)c2cc(F)ccc21)N1CCCC1=O [compound 78] | M1 muscarinic receptor (Homo sapiens, UniProt P11229) | > 5.70 |
| CC(=O)N[C@H]1CCC2(CCN(CC=C(C)C)CC2)c2ccccc21 [compound 150] | M1 muscarinic receptor (Homo sapiens, UniProt P11229) | < 5.30 |
| CC(=O)N1CCC(C(=O)N[C@H]2CCC3(CCN(CCC(C)(C)C)CC3)c3cc(F)ccc32)CC1 [compound 81] | M1 muscarinic receptor (Homo sapiens, UniProt P11229) | 5.30 to 5.70 |
| CC(C)(C)CCN1CCC2(CC[C@@H](NC(=O)CCN3CCCC3=O)c3ccc(F)cc32)CC1 [compound 29] | M1 muscarinic receptor (Homo sapiens, UniProt P11229) | > 5.70 |
| CC(=O)NCCC(=O)N[C@@H]1CCC2(CCN(CCC(C)(C)C)CC2)c2ccccc21 [compound 8] | M1 muscarinic receptor (Homo sapiens, UniProt P11229) | > 5.70 |
| CCC(CC)N1CCC2(CC[C@H](NC(C)=O)c3ccccc32)CC1 [Compound No. 61] | M1 muscarinic receptor (Homo sapiens, UniProt P11229) | < 5.30 |
| C[C@@H](O)CC(=O)N[C@H]1CCC2(CCN(CCC(C)(C)C)CC2)c2ccccc21 [compound 85] | M1 muscarinic receptor (Homo sapiens, UniProt P11229) | > 5.70 |
